target: SARS-CoV-2 full length spike protein, D614G mutant (SARS-CoV-2, UniProt P0DTC2 14-1273)
Exercise: state measured median fluorescence fold over isotype control for each of the binders provided.
One number for each entry, in fold over isotype.

Please give median fluorescence fold over isotype control for each item listed below.
1. antibody 433 (antibody, V domains shown) VH: QVQLVESGGGVVQPGRSLRLSCAASGFTFSSYAMHWVRQAPGKGLEWVAVISYDGSNKYYADSVKGRFTISRDNSKNTLYLQMNSLRAEDTAVYYCAKDYEVVIAIGGPGAFDYWGQGTLVTVSS VL: SYVLTQPPSVSVAPGKTARITCGGNNIGSKSVHWYQQKPGQAPVLVIYYDSDRPSGIPERFSGSNSGNTATLTISRVEAGDEADYYCQVWDSSSDHVVFGGGTKLTVL
2. antibody 453 (antibody, V domains shown) VH: QVQLVESGGGVVQPGRSLRLSCAASGFTFSSYAMYWVRQAPGKGLEWVAVISYDGSNKYYADSVKGRFTISRDNSKNTLYLQMNSLRAEDTAVYYCARDRPHYYGSGRKILNLYGMDVWGQGTTVTVSS VL: DIQLTQSPSFLSASVGDRVTITCRASQGISSYLAWYQQKPGKAPKLLIYAASTLQSGVPSSFSGSGSGTEFTLTISSLQPEDFATYYCQQLNSYPPFTFGPGTKVDIK

Result ::
23.1
7.41

Just for reference, patent US20210292393A1 is where these values come from.
